- ASSAY PROCEDURE: Tmax in ICR mouse at 1 mg/kg, po administered as cassette dose
- Assay type: ADME, organism-based
- CONDITIONS: in vivo
MEASUREMENT KIND: Tmax (h)
Output spec: scalar in h, unitless text.

[in] Please look up its Tmax: COc1c(CN2CC3(CC(N4CCC(C)(C(=O)O)CC4)=NO3)C2)cc(C2CC2)c(-c2ccc(F)cc2)c1Cl
[out] 2.7

----------
Field: IC50. Provide a value for each of the compounds that follow.
- TARGET OF ASSAY: Somatostatin receptor type 5 (Mus musculus)
- Sequence (O08858 whole entry): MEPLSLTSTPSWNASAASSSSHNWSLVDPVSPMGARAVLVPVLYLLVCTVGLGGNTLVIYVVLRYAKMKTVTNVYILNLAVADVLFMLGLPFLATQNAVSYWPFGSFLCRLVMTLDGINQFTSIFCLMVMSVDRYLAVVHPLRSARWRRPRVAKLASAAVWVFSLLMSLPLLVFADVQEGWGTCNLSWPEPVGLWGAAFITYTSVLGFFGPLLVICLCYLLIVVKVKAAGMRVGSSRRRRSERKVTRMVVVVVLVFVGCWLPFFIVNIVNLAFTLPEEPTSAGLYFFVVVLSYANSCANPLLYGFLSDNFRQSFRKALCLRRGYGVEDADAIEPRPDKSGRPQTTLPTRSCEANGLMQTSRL
- ASSAY PROCEDURE: Antagonist activity at mouse SSTR5 expressed in CHO cells assessed as inhibition of SST14-induced forskolin-stimulated intracellular cAMP level incubated for 15 mins followed by forskolin stimulation for 30 mins by HTRF assay
Output spec: scalar in nM, unitless text.

[in] Please look up its IC50: CCOc1cc(CN2CC3(CC(N4CCC(C)(C(=O)O)CC4)=NO3)C2)cc(C)c1-c1ccc(F)cc1
[out] 7.3

[in] Please look up its IC50: COc1c(CN2CC3(CC(N4CCC(C)(C(=O)O)CC4)=NO3)C2)cc(C2CC2)c(-c2ccc(F)cc2)c1Cl
[out] 25

[in] Please look up its IC50: CCOc1cc(CN2CC3(CC(N4CCC(C)(C(=O)O)CC4)=NO3)C2)cc(OCC)c1-c1ccc(F)cc1
[out] 16

[in] Please look up its IC50: CCOc1cc(-c2ccc(F)cc2)c(C2CC2)cc1CN1CC2(CC(N3CCC(C)(C(=O)O)CC3)=NO2)C1
[out] 4.3

[in] Please look up its IC50: CCOc1cc(CN2CC3(CC(N4CCC(C)(C(=O)O)CC4)=NO3)C2)cc(C2CC2)c1-c1ccc(F)cc1
[out] 7.8

[in] Please look up its IC50: CCOc1cc(CN2CC3(CC(N4CCC(C)(C(=O)O)CC4)=NO3)C2)c(C2CC2)cc1-c1ccc(F)cc1
[out] 85

[in] Please look up its IC50: CCOc1cc(CN2CC3(CC(N4CCC(C(=O)O)CC4)=NO3)C2)cc(OCC)c1-c1ccc(F)cc1
[out] 57

[in] Please look up its IC50: CCOc1c(CN2CC3(CC(N4CCC(C)(C(=O)O)CC4)=NO3)C2)cc(C2CC2)c(-c2ccc(F)cc2)c1Cl
[out] 25

[in] Please look up its IC50: CCOc1cc(CN2CC3(CC(N4CCC(C)(C(=O)O)CC4)=NO3)C2)cc(CC)c1-c1ccc(F)cc1
[out] 23

[in] Please look up its IC50: COc1cc(-c2ccc(F)cc2)c(C2CC2)cc1CN1CC2(CC(N3CCC(C)(C(=O)O)CC3)=NO2)C1
[out] 7.6

[in] Please look up its IC50: CCOc1cc(CN2CC3(CC(N4CCC(C)(C(=O)O)CC4)=NO3)C2)cc(OC)c1-c1ccc(F)cc1
[out] 62

[in] Please look up its IC50: CCc1cc(-c2ccc(F)cc2)c(C2CC2)cc1CN1CC2(CC(N3CCC(C)(C(=O)O)CC3)=NO2)C1
[out] 29

[in] Please look up its IC50: CCOc1cc(CN2CC3(CC(N4CCC(F)(C(=O)O)CC4)=NO3)C2)cc(OCC)c1-c1ccc(F)cc1
[out] 78

[in] Please look up its IC50: CCOc1cc(CN2CC3(CC(N4CCC(CC)(C(=O)O)CC4)=NO3)C2)cc(OCC)c1-c1ccc(F)cc1
[out] 19

[in] Please look up its IC50: CCOc1c(CN2CC3(CC(N4CCC(C)(C(=O)O)CC4)=NO3)C2)cc(C2CC2)c(-c2ccc(F)cc2)c1C
[out] 37

[in] Please look up its IC50: CC(C)Oc1cc(-c2ccc(F)cc2)c(C2CC2)cc1CN1CC2(CC(N3CCC(C)(C(=O)O)CC3)=NO2)C1
[out] 3.9
